Where do these numbers come from? They come from patent US20090005398A1.

test system: A549-L; test: Cell-Titer-Glo cell proliferation; type: cell-based; conditions: lung, 72 h
measured.attribute: IC50

For the compound shown here, C[C@@H](Oc1cc(-n2cnc3ccc(CN4CCN(C)CC4)cc32)sc1C(N)=O)c1ccccc1C(F)(F)F [Example 1] , give the reported IC50.
< 500 nM

====

test system: DBTRG-05MG; test: Multiple cell line screen, cell proliferation; assay type: cell-based; conditions: Homo sapiens, 72 h, glioblastoma, nuclei count, 3 days
measured.attribute: IC50

For the molecule shown here, C[C@@H](Oc1cc(-n2cnc3ccc(CN4CCN(C)CC4)cc32)sc1C(N)=O)c1ccccc1C(F)(F)F [Example 1] , give the reported IC50.
< 50 nM

====

test system: MiaPaca; test: Cell-Titer-Glo cell proliferation; format: cell-based; settings: Homo sapiens, MIA PaCa-2, pancreas, 72 h
pIC50: −log10 of the molar value.
measured.attribute: pIC50

For the compound shown here, C[C@@H](Oc1cc(-n2cnc3ccc(CN4CCN(C)CC4)cc32)sc1C(N)=O)c1ccccc1C(F)(F)F , give the reported pIC50.
> 6.30

====

system: SF-539; test: Multiple cell line screen, cell proliferation; assay type: cell-based; conditions: Homo sapiens, SF-539, 72 h; astrocytoma; nuclei count, 3 days
pIC50: −log10 of the molar value.
measured.attribute: pIC50

For the molecule shown here, C[C@@H](Oc1cc(-n2cnc3ccc(CN4CCN(C)CC4)cc32)sc1C(N)=O)c1ccccc1C(F)(F)F , give the reported pIC50.
> 7.30

====

test system: COLO205; assay: Cell-Titer-Glo cell proliferation; format: cell-based; settings: Homo sapiens, COLO 205, colon, 72 h
measured.attribute: IC50

For the molecule shown here, C[C@@H](Oc1cc(-n2cnc3ccc(CN4CCN(C)CC4)cc32)sc1C(N)=O)c1ccccc1C(F)(F)F , give the reported IC50.
< 0.5 µM

====

Test system: MDA-MB-468
Assay: Cell-Titer-Glo cell proliferation
Type: cell-based
Conditions: Homo sapiens, breast, 72 h
Protocol: Exponentially growing cell lines of different tumor origins, cultured in appropriate media containing 10% fetal bovine serum at 37° C. in a 5% CO2 incubator were plated at low density (less than 2000 cells/well) in 96-well plates. […] Seventy two hours post-treatment, cell numbers were determined using 50-100 ul per well of CellTiter-Glo (Promega #G7573). Plates were incubated at room temperature for 15 minutes and the chemiluminescent signal was read on the Victor V or Envison 2100 reader. […]
measured.attribute: IC50

For the compound shown here, C[C@@H](Oc1cc(-n2cnc3ccc(CN4CCN(C)CC4)cc32)sc1C(N)=O)c1ccccc1C(F)(F)F [Example 1] , give the reported IC50.
< 0.5 µM

====

test system: A549; test: Methylene blue growth inhibition assay; assay type: cell-based; settings: Homo sapiens, 72 h
measured.attribute: IC50

For the molecule shown here, C[C@@H](Oc1cc(-n2cnc3ccc(CN4CCN(C)CC4)cc32)sc1C(N)=O)c1ccccc1C(F)(F)F [Example 1] , give the reported IC50.
< 100 nM

====

test system: CCF-SSTG1; test: Multiple cell line screen, cell proliferation; assay type: cell-based; conditions: 72 h; astrocytoma; nuclei count, 3 days
pIC50: −log10 of the molar value.
measured.attribute: pIC50

For the molecule shown here, C[C@@H](Oc1cc(-n2cnc3ccc(CN4CCN(C)CC4)cc32)sc1C(N)=O)c1ccccc1C(F)(F)F , give the reported pIC50.
> 7.30
